test.protocol: Approximate solubility of TPA023B Phosphate in solvents (stepwise solvent addition)
Type: physicochemical
measurement.setup: organic solvent or mixture, thermodynamic from solid; Acetonitrile (ACN), 50° C.
measured.attribute: solubility

molecule="CC(C)(O)c1cnn2c(-c3ccc(F)c(-c4c(F)cccc4C#N)c3)cnc2n1.O=P(O)(O)O [Phosphate Polymorphic Form A]" result="2000 to 10000 µg/mL"

---

test.protocol: Approximate solubility of TPA023B Phosphate in solvents (stepwise solvent addition)
Assay type: physicochemical
measurement.setup: organic solvent or mixture, thermodynamic from solid; Heptane, RT
measured.attribute: solubility

compound="CC(C)(O)c1cnn2c(-c3ccc(F)c(-c4c(F)cccc4C#N)c3)cnc2n1.O=P(O)(O)O [Phosphate Polymorphic Form A]" result="< 2000 µg/mL"

---

test.protocol: Approximate solubility of TPA023B Phosphate in solvents (stepwise solvent addition)
Format: physicochemical
measurement.setup: organic solvent or mixture, thermodynamic from solid; Acetonitrile (ACN), RT
Procedure: The total amount of solvent was recorded to calculate the approximate solubility in these solvents.
measured.attribute: solubility

molecule="CC(C)(O)c1cnn2c(-c3ccc(F)c(-c4c(F)cccc4C#N)c3)cnc2n1.O=P(O)(O)O [Phosphate Polymorphic Form A]" result="< 2000 µg/mL"

---

test.protocol: Approximate solubility of TPA023B Phosphate in solvents (stepwise solvent addition)
Type: physicochemical
measurement.setup: organic solvent or mixture, thermodynamic from solid; THF, 50° C.
measured.attribute: solubility

molecule="CC(C)(O)c1cnn2c(-c3ccc(F)c(-c4c(F)cccc4C#N)c3)cnc2n1.O=P(O)(O)O [Phosphate Polymorphic Form A]" result="< 50 mg/mL"

---

test.protocol: Approximate solubility of TPA023B Phosphate in solvents (stepwise solvent addition)
Assay type: physicochemical
measurement.setup: organic solvent or mixture, thermodynamic from solid; Heptane, 50° C.
measured.attribute: solubility

compound="CC(C)(O)c1cnn2c(-c3ccc(F)c(-c4c(F)cccc4C#N)c3)cnc2n1.O=P(O)(O)O [Phosphate Polymorphic Form A]" result="< 2000 µg/mL"

---

test.protocol: Approximate solubility of TPA023B Phosphate in solvents (stepwise solvent addition)
Format: physicochemical
measurement.setup: aqueous with cosolvent or surfactant or cyclodextrin, thermodynamic from solid; Acetone/H2O (1/1, v/v), 50° C.
Method: The total amount of solvent was recorded to calculate the approximate solubility in these solvents.
measured.attribute: solubility

compound="CC(C)(O)c1cnn2c(-c3ccc(F)c(-c4c(F)cccc4C#N)c3)cnc2n1.O=P(O)(O)O [Phosphate Polymorphic Form A]" result="2000 to 10000 µg/mL"

---

test.protocol: Approximate solubility of TPA023B Phosphate in solvents (stepwise solvent addition)
Assay type: physicochemical
measurement.setup: aqueous with cosolvent or surfactant or cyclodextrin, thermodynamic from solid; EtOH/H2O (1/1, v/v), RT
measured.attribute: solubility

compound="CC(C)(O)c1cnn2c(-c3ccc(F)c(-c4c(F)cccc4C#N)c3)cnc2n1.O=P(O)(O)O [Phosphate Polymorphic Form A]" measured_attribute=solubility result="< 2000 µg/mL"
